Entries and their measured melting point follow.

### Prompt Bench note: what melting point did "O=C1Cc2cc(F)cc(C(=O)c3ccc(F)cc3)c2N1" show?
### Response 195 to 196 °C

----------
Entries and their measured melting point follow.

>  <Compound>
O=C(O)c1cc(S(=O)(=O)Oc2ccccc2-c2ccc(-c3c(Cc4ccccc4)oc4ccccc34)cc2)ccc1O

>  <melting point>
171 to 173 °C

$$$$
>  <Compound>
c1cc(NCC2CCCO2)c2cc3c(cc2n1)OCO3 (stereo unspecified)

>  <melting point>
276 to 278 °C

$$$$
>  <Compound>
CC(C)n1c(=O)c(=O)[nH]c2ccccc21

>  <melting point>
227 to 228 °C

$$$$
>  <Compound>
C=C(CO)COC(=O)NCCCCCCCCCCCCCCC

>  <melting point>
60 to 62 °C

$$$$
>  <Compound>
CCOC(=O)c1csc(S)n1

>  <melting point>
120 to 121 °C

$$$$

### Prompt Bench note: what melting point did O=C(CC1c2ccccc2C(=O)N1c1ccc(Cl)cn1)N1CCCCC1 (stereo unspecified) show?
### Response 165 to 166 °C

----------
Reported Property: melting point

Worked set:
>  <Compound>
OCC1OC(n2c(Cl)nc3cc(Cl)c(F)cc32)C(O)C1O (configuration not stated)

>  <melting point>
170 to 172 °C

$$$$
>  <Compound>
CCC(O)(CC)c1csc(-c2cccc(OCc3ccc(CO)c(CO)c3)c2)c1

>  <melting point>
47 °C

$$$$
>  <Compound>
NC(=O)CCC(C(=O)O)N1C(=O)c2cccc(N)c2C1=O (configuration not stated)

>  <melting point>
165 to 167 °C

$$$$
>  <Compound>
C=C(C)C(=O)OCCc1ccc(N(C)C)cc1

>  <melting point>
42 to 43 °C

$$$$
>  <Compound>
CC(C)CC(=O)Nc1cccc(-c2ccnc3c(-c4cccc(N)c4)cnn23)c1

>  <melting point>
173 to 175 °C

$$$$

### Prompt Bench note: what melting point did CC(NC(=O)c1cc(Cl)ccc1NC(=O)c1cc(Br)nn1-c1ncccc1Cl)C1CC1 (configuration not stated) show?
### Response 231 to 233 °C

### Prompt Bench note: what melting point did "COc1ccc2c(c1)Sc1cc(OC(C)=O)c3ccccc3c1N2" show?
### Response 156 to 158 °C

### Prompt Bench note: what melting point did "O=C(Nc1ccc(OCc2ccoc2)c2ccccc12)c1cc(F)cc(N2CCCCC2)c1" show?
### Response 152 to 153 °C

### Prompt Bench note: what melting point did "COc1cc(C(=O)NCc2ccc(N)cc2)cc(OC)c1OC(C)=O" show?
### Response 47 to 48 °C

### Prompt Bench note: what melting point did CCOC(=O)c1ccccc1N(CC(=O)N(C)c1ccccc1)C(=O)CNC(=O)Nc1cccc(C(C)O)c1 (configuration not stated) show?
### Response 195 °C

### Prompt Bench note: what melting point did "COc1cnccc1NC(=O)Nc1ccc(N2CCN(C(=O)Nc3ccc(OCCO)cc3C(F)(F)F)CC2)cc1" show?
### Response 142 to 143 °C

### Prompt Bench note: what melting point did "Brc1ccc2c(ccn2Cc2ccccc2)c1" show?
### Response 90 °C

----------
Reported Property: melting point

>  <Molecule>
CC(C)(CCn1cncn1)NCC(O)c1ccc(O)c(CO)c1 (stereo unspecified)

>  <Result>
177 to 180 °C

$$$$
>  <Molecule>
O=C1OC(=O)c2c(Cl)c(Sc3ccccc3)c(Cl)c(Cl)c21

>  <Result>
162 to 164 °C

$$$$
>  <Molecule>
CN(S(C)(=O)=O)S(=O)(=O)N=C=O

>  <Result>
140 °C

$$$$
>  <Molecule>
Cc1ccc(S(=O)(=O)N(C)c2ccc(Cl)nn2)cc1

>  <Result>
80 to 81 °C

$$$$
>  <Molecule>
O=C(NC1(C(=O)O)CCCCC1)C(CS)Cc1ccccc1 (stereo unspecified)

>  <Result>
193 to 195 °C

$$$$

### Prompt Bench note: what melting point did "COc1cc(OC)cc(C(=O)NCCCSc2ccncc2)c1" show?
### Response 110 to 111 °C

### Prompt Bench note: what melting point did "COCCOCc1nc2c(N)nc3ccccc3c2n1CCOc1ccccc1" show?
### Response 170 to 172 °C

### Prompt Bench note: what melting point did "CN(C)CCOC(=O)C(=O)c1ccc(OCCOc2ccc3ccccc3c2)cc1" show?
### Response 93 to 94 °C

### Prompt Bench note: what melting point did C=C(C)N(C(=C)C)C(=O)C(C)Oc1cc(-c2ccccc2)nc2ccccc12 (stereo unspecified) show?
### Response 110 °C

### Prompt Bench note: what melting point did "CCCc1nc(-n2c(C)ccc2C)c(C(=O)OC)[nH]1" show?
### Response 175 to 176 °C

### Prompt Bench note: what melting point did CCC1CC2C3CCC4=CC(=O)CCC4=C3C=CC2(CC)C1O (stereo unspecified) show?
### Response 184 to 187 °C

### Prompt Bench note: what melting point did "CN(C)S(=O)(=O)N1CCN(S(=O)(=O)c2ccc(-c3ccc(CC#N)cc3)s2)[C@@H](C(=O)NO)C1" show?
### Response 170 to 172 °C

----------
Reported Property: melting point

Worked set:
>  <Compound>
CCOC(=O)c1c(C(F)F)nc(C(F)(F)F)c(C(=O)OCC)c1-c1ccncc1

>  <Result>
43 to 45 °C

$$$$
>  <Compound>
CCNC1CCc2c(ccc(OC)c2OC)C1O (stereo unspecified)

>  <Result>
125 to 128 °C

$$$$
>  <Compound>
Cc1noc(-c2cccc(C3=Nc4ccc(-c5ccc(F)cc5)cc4NC(=O)C3)c2)n1

>  <Result>
266 to 268 °C

$$$$
>  <Compound>
O=[N+]([O-])c1ccc(CN(CCO)CCO)cc1

>  <Result>
74 to 75 °C

$$$$

### Prompt Bench note: what melting point did "CN1CCC(Sc2ccc3[nH]c(=O)[nH]c(=O)c3c2)CC1" show?
### Response > 260 °C

### Prompt Bench note: what melting point did "C1CC1Nc1nc(NC2CC2)nc(NC2CC2)n1" show?
### Response 75 to 77 °C

### Prompt Bench note: what melting point did "Cc1nnc2n1-c1ccc(C#CCN3C(=O)CCc4ccccc43)cc1C(c1ccccc1F)=NC2" show?
### Response 236 to 239 °C

### Prompt Bench note: what melting point did "CCc1cccc(-c2nc(=O)c3ccccc3s2)n1" show?
### Response 150 to 151 °C

----------
Entries and their measured melting point follow.

Worked set:
>  <Compound>
CC(=O)N(C)Cc1ccc(OCc2ccc(F)cc2)cc1

>  <melting point>
82 to 83 °C

$$$$
>  <Compound>
CC(=O)Nc1cc(OCCC(=O)O)ccc1Oc1ccccc1

>  <melting point>
138 to 140 °C

$$$$
>  <Compound>
NS(=O)(=O)c1ccc(Cl)c(NC(=O)c2cnn3c(C(F)(F)F)cc(-c4ccc(C(F)(F)F)cc4)nc23)c1

>  <melting point>
300 °C

$$$$
>  <Compound>
CN(C)c1ncnc2c1ncn2Cc1c(F)cccc1Cl

>  <melting point>
134 to 135 °C

$$$$

Shift focus to the following entry.
### Prompt Bench note: what melting point did CC(C)Cn1cccc1C(=O)C(C#N)C(=O)Nc1ccccc1 (stereo not given) show?
### Response 134 to 136 °C

----------
Reported Property: melting point

>  <Compound>
CCC(=O)NC1(c2ccc(C(C)C)cc2OC(=O)CC)C(=O)c2ccccc2C1=O

>  <melting point>
173 to 175 °C

$$$$
>  <Compound>
COC(=O)c1ccc2c(c1)c(=O)[nH]c(=O)n2CCCCN1CCC(OC(c2ccccc2)c2ccccc2)CC1

>  <melting point>
151 to 153 °C

$$$$
>  <Compound>
Brc1ccc2cc(OCc3ccc4ccccc4n3)ccc2c1

>  <melting point>
135 to 137 °C

$$$$

### Prompt Bench note: what melting point did CC(C)=Cc1ccc(-c2ccc(C(CC3CCOCC3)c3ccc(S(=O)(=O)C4CC4)cc3)[nH]2)nc1 (configuration not stated) show?
### Response 114 to 116 °C

### Prompt Bench note: what melting point did "Nc1nc2c(s1)CCN(CC=Cc1cccc(O)c1)CC2" show?
### Response 85 to 95 °C

### Prompt Bench note: what melting point did NC(=O)c1ccc(F)c2c1OCC(N)C2 (configuration not stated) show?
### Response 128 °C

### Prompt Bench note: what melting point did "CCCCNS(=O)(=O)c1cc(C(=O)Cl)ccc1Cl" show?
### Response 110 °C

----------
Entries and their measured melting point follow.

>  <Compound>
CC(C)(C)OC(=O)COC1CCN(CC2CN(c3ccc(CN)cc3)C(=O)O2)CC1 (stereo unspecified)

>  <Result>
95 to 96 °C

$$$$

### Prompt Bench note: what melting point did "Brc1c(NC2=NCCN2)ccc2c1NCCN2" show?
### Response 218 to 220 °C

### Prompt Bench note: what melting point did "COc1ccc2[nH]c(/C=C/C(=O)OCc3ccccc3)cc2c1" show?
### Response 155 to 157 °C

### Prompt Bench note: what melting point did "COc1ccccc1-n1c(=O)[nH]c2c(C(N)=O)nc(-c3ccc4nc(C(F)(F)F)[nH]c4c3)nc21" show?
### Response 220 to 222 °C

### Prompt Bench note: what melting point did "CCCCc1nc2ccccn2c(=O)c1-c1ccc(Cl)cc1C" show?
### Response 105 to 107 °C

### Prompt Bench note: what melting point did "COCNc1c(C#N)cnn1-c1ccc(Cl)c(Cl)c1Cl" show?
### Response 129 to 130 °C
